Data origin, for the record: patent US20120277238A1

molecular target: CYP2C9 (Homo sapiens, UniProt P11712)
Sequence (P11712 whole entry): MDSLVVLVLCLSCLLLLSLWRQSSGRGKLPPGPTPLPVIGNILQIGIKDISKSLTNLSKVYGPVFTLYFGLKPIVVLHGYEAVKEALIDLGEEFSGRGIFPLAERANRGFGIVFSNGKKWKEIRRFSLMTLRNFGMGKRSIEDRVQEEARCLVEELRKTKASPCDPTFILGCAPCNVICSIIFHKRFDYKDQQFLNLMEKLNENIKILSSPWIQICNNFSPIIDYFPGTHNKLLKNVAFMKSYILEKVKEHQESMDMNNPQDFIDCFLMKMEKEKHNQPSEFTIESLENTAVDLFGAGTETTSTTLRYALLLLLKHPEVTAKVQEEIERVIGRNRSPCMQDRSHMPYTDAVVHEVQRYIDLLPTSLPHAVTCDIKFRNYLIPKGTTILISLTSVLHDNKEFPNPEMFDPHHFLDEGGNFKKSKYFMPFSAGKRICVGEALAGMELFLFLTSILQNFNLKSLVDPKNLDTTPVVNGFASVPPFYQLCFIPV
MEASUREMENT_KIND: IC50

The molecule listed as "CN1CCN(C(=O)c2cc3c([nH]2)CCC(F)(F)C3)CC1" shows IC50 equal to > 20 µM

* * *

Measured Ki (human HRH4 (Homo sapiens, UniProt Q9H3N8))
Kindly write the number and append the unit.

Take a look at these entries with their results.
>>> recorded_result("O=C(c1cc2c([nH]1)CCC(F)(F)C2)N1CCNCC1 [Compound I-056]")
"130 nM"
>>> recorded_result("CN1CCN(C(=O)c2cc3c([nH]2)[C@H]2CC[C@@H]3C2)CC1 [Compound I-046]")
"290 nM"
>>> recorded_result("O=C(c1cc2c([nH]1)CCC(Cl)(Cl)C2)N1CCNCC1 [Compound I-055]")
"23 nM"
>>> recorded_result("O=C(c1cc2c([nH]1)CCC(F)(F)C2O)N1C[C@H]2CCCN[C@H]2C1 (stereo partly drawn) [Compound I-064]")
"180 nM"
>>> recorded_result("CN1CCN(C(=O)c2cc3c([nH]2)CCC(Cl)(Cl)C3)CC1 [Compound I-047]")
"14 nM"

The recorded Ki with human HRH4 (Homo sapiens, UniProt Q9H3N8) for CN1CCN(C(=O)c2cc3c([nH]2)C(CO)CCC3)CC1 (stereo not drawn) [Compound I-043] was 270 nM

The recorded Ki with human HRH4 (Homo sapiens, UniProt Q9H3N8) for CN1CCN(C(=O)c2cc3c([nH]2)CCC(F)(F)C3O)CC1 (stereo not drawn) [Compound I-054] was 230 nM

The recorded Ki with human HRH4 (Homo sapiens, UniProt Q9H3N8) for CN1CCN(C(=O)c2cc3c([nH]2)CCOC3)CC1 [Compound I-052] was 380 nM

The recorded Ki with human HRH4 (Homo sapiens, UniProt Q9H3N8) for CC(=O)n1c(C(=O)N2CCN(C)CC2)cc2c1CCCC2 [Compound I-059] was 270 nM

The recorded Ki with human HRH4 (Homo sapiens, UniProt Q9H3N8) for O=C(c1cc2c([nH]1)CCCC2)N1C[C@H]2CCCN[C@H]2C1 [Compound I-062] was 260 nM

The recorded Ki with human HRH4 (Homo sapiens, UniProt Q9H3N8) for COC1c2cc(C(=O)N3CCNCC3)[nH]c2CCC1(Cl)Cl (stereo not drawn) [Compound I-067] was 480 nM

The recorded Ki with human HRH4 (Homo sapiens, UniProt Q9H3N8) for C#CC1=Cc2cc(C(=O)N3CCN(C)CC3)[nH]c2CC1 [Compound I-033] was 320 nM

The recorded Ki with human HRH4 (Homo sapiens, UniProt Q9H3N8) for O=C(c1cc2c([nH]1)CCC(F)(F)C2O)N1CCN2CCCC2C1 (stereo not drawn) [Compound I-068] was 520 nM

The recorded Ki with human HRH4 (Homo sapiens, UniProt Q9H3N8) for COC1CCc2[nH]c(C(=O)N3CCN(C)CC3)cc2C1 (stereo not drawn) [Compound I-023] was 990 nM

The recorded Ki with human HRH4 (Homo sapiens, UniProt Q9H3N8) for CC1CCCc2[nH]c(C(=O)N3CCN(C)CC3)cc21 (stereo not drawn) [Compound I-009] was 150 nM

The recorded Ki with human HRH4 (Homo sapiens, UniProt Q9H3N8) for O=C(c1nc2c([nH]1)CCCC2)N1CCNCC1 [Compound I-008] was 420 nM

The recorded Ki with human HRH4 (Homo sapiens, UniProt Q9H3N8) for CN1CCN(C(=O)c2cc3c([nH]2)CCC(c2ccccc2)=C3)CC1 [Compound I-027] was 760 nM

The recorded Ki with human HRH4 (Homo sapiens, UniProt Q9H3N8) for CCOC1c2cc(C(=O)N3C[C@H]4CCCN[C@H]4C3)[nH]c2CCC1(F)F (stereo partly drawn) [Compound I-070] was 270 nM

The recorded Ki with human HRH4 (Homo sapiens, UniProt Q9H3N8) for CC1CCc2cc(C(=O)N3CCN(C)CC3)[nH]c2C1 (stereo not drawn) [Compound I-017] was 570 nM

The recorded Ki with human HRH4 (Homo sapiens, UniProt Q9H3N8) for CN1CCN(C(=O)c2cc3c([nH]2)CCC(C#N)C3)CC1 (stereo not drawn) [Compound I-035] was 150 nM

The recorded Ki with human HRH4 (Homo sapiens, UniProt Q9H3N8) for CN1CCN(C(=O)c2cc3c([nH]2)C(=O)CCC3)CC1 [Compound I-024] was 710 nM

The recorded Ki with human HRH4 (Homo sapiens, UniProt Q9H3N8) for CC1CCCc2cc(C(=O)N3CCN(C)CC3)[nH]c21 (stereo not drawn) [Compound I-026] was 100 nM

The recorded Ki with human HRH4 (Homo sapiens, UniProt Q9H3N8) for CN1CCN(C(=O)c2cc3c([nH]2)CC(O)C(Cl)(Cl)C3)CC1 (stereo not drawn) [Compound I-076] was 25 nM

The recorded Ki with human HRH4 (Homo sapiens, UniProt Q9H3N8) for CN1CCN(C(=O)c2cc3c([nH]2)CCC(Cl)(Cl)C3O)CC1 (stereo not drawn) [Compound I-066] was 350 nM

* * *

molecular target: CYP2D6 (Homo sapiens, UniProt P10635)
Sequence (P10635 whole entry): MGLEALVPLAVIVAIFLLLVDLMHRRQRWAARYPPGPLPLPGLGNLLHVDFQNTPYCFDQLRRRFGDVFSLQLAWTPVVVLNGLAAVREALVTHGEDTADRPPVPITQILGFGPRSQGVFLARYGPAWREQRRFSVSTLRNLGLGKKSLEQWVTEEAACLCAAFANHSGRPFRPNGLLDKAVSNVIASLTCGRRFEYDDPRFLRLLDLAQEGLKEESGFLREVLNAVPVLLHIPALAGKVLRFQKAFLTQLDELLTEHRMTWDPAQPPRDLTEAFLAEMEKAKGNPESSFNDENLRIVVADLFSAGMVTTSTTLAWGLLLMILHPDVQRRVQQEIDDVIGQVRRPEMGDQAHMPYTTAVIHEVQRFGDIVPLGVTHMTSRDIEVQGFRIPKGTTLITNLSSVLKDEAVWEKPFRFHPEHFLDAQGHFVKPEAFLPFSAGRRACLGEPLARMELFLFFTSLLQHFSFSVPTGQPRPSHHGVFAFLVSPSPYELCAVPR
pIC50: −log10 of the molar value.
MEASUREMENT_KIND: pIC50

The compound listed as "CN1CCN(C(=O)c2cc3c([nH]2)CCC(F)(F)C3)CC1" shows pIC50 equal to < 4.70

* * *

As shown below, each of these compounds has a reported inhibition at 10 min, 1 μmol/L value.
molecular target: hERG (IKr) (Homo sapiens, UniProt Q12809); construct: expressed in transfected cells; host or cells: HEK293; assay: hERG test (whole cell patch clamp, IKr); type: cell-based; conditions: HEK293 cells expressing hERG channel, pH 7.4, at 1 μmol/L, read-out: % inhibition of IKr (hERG tail peak current)
Sequence (Q12809 whole entry): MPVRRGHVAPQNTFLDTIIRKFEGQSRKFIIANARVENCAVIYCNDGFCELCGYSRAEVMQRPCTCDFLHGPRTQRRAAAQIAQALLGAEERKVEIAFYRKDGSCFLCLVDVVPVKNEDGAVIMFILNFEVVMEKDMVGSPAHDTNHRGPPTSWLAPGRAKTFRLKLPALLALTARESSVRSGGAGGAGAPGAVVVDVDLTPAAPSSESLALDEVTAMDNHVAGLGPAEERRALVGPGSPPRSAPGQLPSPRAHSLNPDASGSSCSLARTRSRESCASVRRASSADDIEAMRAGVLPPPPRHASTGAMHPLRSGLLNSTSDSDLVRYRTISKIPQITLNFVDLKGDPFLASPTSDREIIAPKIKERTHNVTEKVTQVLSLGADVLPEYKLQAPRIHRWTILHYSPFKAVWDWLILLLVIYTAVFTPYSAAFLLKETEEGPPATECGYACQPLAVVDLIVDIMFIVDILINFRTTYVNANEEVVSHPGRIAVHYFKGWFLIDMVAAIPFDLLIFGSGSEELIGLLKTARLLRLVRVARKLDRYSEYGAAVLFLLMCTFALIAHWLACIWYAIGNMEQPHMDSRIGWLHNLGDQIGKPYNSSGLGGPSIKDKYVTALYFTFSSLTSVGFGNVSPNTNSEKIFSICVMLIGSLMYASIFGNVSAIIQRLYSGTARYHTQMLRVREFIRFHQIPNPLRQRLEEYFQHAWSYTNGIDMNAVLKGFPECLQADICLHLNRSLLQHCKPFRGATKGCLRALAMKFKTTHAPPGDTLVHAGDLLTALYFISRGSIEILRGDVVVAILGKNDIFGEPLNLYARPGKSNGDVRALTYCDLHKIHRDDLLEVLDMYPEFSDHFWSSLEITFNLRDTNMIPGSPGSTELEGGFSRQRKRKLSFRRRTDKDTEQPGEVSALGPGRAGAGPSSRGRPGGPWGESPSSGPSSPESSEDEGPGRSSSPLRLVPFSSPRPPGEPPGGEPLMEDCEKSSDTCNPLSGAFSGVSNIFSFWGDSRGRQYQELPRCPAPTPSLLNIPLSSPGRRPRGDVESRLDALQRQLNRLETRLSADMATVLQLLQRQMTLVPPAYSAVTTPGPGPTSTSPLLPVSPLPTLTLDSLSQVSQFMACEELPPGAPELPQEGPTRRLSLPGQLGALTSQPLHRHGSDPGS
Kindly provide the numeric value in % only, without the unit symbol.

>>> recorded_result("CN1CCN(C(=O)c2cc3c([nH]2)CCC(C#N)C3)CC1 (centres unmarked)")
0

The recorded inhibition at 10 min, 1 μmol/L with hERG (IKr) (Homo sapiens, UniProt Q12809) for CN1CCN(C(=O)c2cc3c([nH]2)C(CO)CCC3)CC1 (centres unmarked) was 0

* * *

experiment: Bioavailability (BA) test and total body clearance test; format: in vivo; conditions: plasma; rat; oral 1 mg/kg dosage
MEASUREMENT_KIND: bioavailability (%)
Kindly provide the numeric value in % only, without the unit symbol.

>>> recorded_result("O=C(c1cc2c([nH]1)CCC(Cl)(Cl)C2O)N1CCNCC1 (centres unmarked)")
59

Then there is this compound:
The compound listed as CN1CCN(C(=O)c2cc3c([nH]2)CCC(C#N)C3)CC1 (centres unmarked) shows bioavailability equal to 31

* * *

Experiment: Bioavailability (BA) test and total body clearance test
Assay type: in vivo
Conditions: rat, plasma, intravenous; read-out: Clt (total body clearance)
Protocol: (1) Animal: mice or rats (2) Breeding conditions: mice and rats are allowed to freely take solid feed and sterilized tap water (3) Dose and grouping: orally or intravenously administered at a predetermined dose; grouping is as follows (Dose depends on the compound) Oral administration: 1 to 30 mg/kg (n=2 to 3) Intravenous administration: 0.5 to 10 mg/kg (n=2 to 3) […]
MEASUREMENT_KIND: clearance (mL/min/kg)
Kindly provide the numeric value in mL/min/kg only, without the unit symbol.

The compound listed as O=C(c1cc2c([nH]1)CCC(Cl)(Cl)C2O)N1CCNCC1 (stereo not shown) [Compound I-073] shows clearance equal to 24

* * *

Measured pKi (human HRH4 (Homo sapiens, UniProt Q9H3N8))
As a rule, pKi stands for the negative log10 of the concentration, concentration in M.

The recorded pKi with human HRH4 (Homo sapiens, UniProt Q9H3N8) for "CN1CCN(C(=O)c2cc3c([nH]2)CCC(F)(F)C3)CC1" was 7.20

The recorded pKi with human HRH4 (Homo sapiens, UniProt Q9H3N8) for Cc1ccc(S(=O)(=O)OC2CCc3[nH]c(C(=O)N4CCN(C)CC4)cc3C2)cc1 (stereo not drawn) was 6.70

The recorded pKi with human HRH4 (Homo sapiens, UniProt Q9H3N8) for "O=C(c1cc2c([nH]1)CCCC2)N1CCNCC1" was 6.60
